assay: qHTS for differential inhibitors of proliferation of Plasmodium falciparum line W2 (AID 1883); conditions: Plasmodium falciparum W2 proliferation inhibition; series mostly up to 28.7 µM;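 also: parasites grown with compound for 72 h before lysis and staining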
Records with an inconclusive call do not appear. Active and inactive are the calls of the source. Calls follow the shape of the dose curve; as a rule, active = well fitted curve in the direction sought with a large enough effect; inconclusive = small, poorly fitted or top-dose-only effect, or another doubt; inactive = no such curve, though single readings can be large or run the other way.
Choose one outcome from this list and give only that: class 1 = active, class 0 = inactive

{"COMPOUND": "CC(C)(C)NCC(O)c1cc(O)cc(O)c1 (configuration not stated)", "GROUP": "class 0"}
{"COMPOUND": "CCCCNc1ccc(C(=O)OCCN(C)C)cc1", "GROUP": "class 0"}
{"COMPOUND": "c1cc(CN2CCCCC2)cc(OCCCNc2nc3ccccc3s2)c1", "GROUP": "class 1"}
{"COMPOUND": "CC(=O)OCC1=C(C(=O)O)N2C(=O)[C@@H](NC(=O)Cc3cccs3)[C@H]2SC1", "GROUP": "class 0"}
{"COMPOUND": "CCN(CC)CCOCCOC(=O)C1(c2ccccc2)CCCC1", "GROUP": "class 1"}
{"COMPOUND": "COCCCC/C(=N\\OCCN)c1ccc(C(F)(F)F)cc1", "GROUP": "class 1"}
{"COMPOUND": "CC(=O)OC(C)C[N+](C)(C)C (configuration not stated)", "GROUP": "class 0"}
{"COMPOUND": "CN1CCN(CC(=O)N2c3ccccc3C(=O)Nc3cccnc32)CC1", "GROUP": "class 0"}
{"COMPOUND": "CN(C)CCCN1c2ccccc2Sc2ccccc21", "GROUP": "class 1"}
{"COMPOUND": "Cc1nc2c([nH]1)c(=O)n(C)c(=O)n2Cc1ccco1", "GROUP": "class 0"}

Task: Recorded call for COCCOC(=O)C1=C(C)NC(C)=C(C(=O)OC(C)C)C1c1cccc([N+](=O)[O-])c1 (configuration not stated) ?
Output: class 1

Task: Would you mind telling me which call this test gave CC(=O)Oc1cc(C(C)C)c(OCCN(C)C)cc1C ?
Output: class 1

* * *

A collection of compounds and their measured max response
assay: qHTS Assay for Lipid Storage Modulators (AID 1519); details: Drosophila S3 cells, BODIPY lipid droplet/cell ratio, laser cytometry; measured here: lipid channel max response; cells loaded with oleic acid
Records with an inconclusive call do not appear.
Hi! Could you send only the number? It should be in %, unit omitted.

// known answers, use as guide
{"COMPOUND": "CCCCCN(CCCCC)C(=O)C(CCC(=O)O)NC(=O)c1ccc(Cl)c(Cl)c1 (centres undefined)", "QUANTITATIVE_READOUT": -4.23}
{"COMPOUND": "COCCc1ccc(OCC(O)CNC(C)C)cc1 (centres undefined)", "QUANTITATIVE_READOUT": -15.7}
{"COMPOUND": "O=C(O)CN(CCOCCOCCN(CC(=O)O)CC(=O)O)CC(=O)O", "QUANTITATIVE_READOUT": -9.56}

Next compound, max response to be filled in.
Task: What value of max response has been reported for the following compound? CCNC(=O)N1CCN(CCCC(c2ccc(F)cc2)c2ccc(F)cc2)CC1
Output: -48.7

* * *

tested on: CP260; assay: qHTS profiling for inhibitors of Plasmodium falciparum proliferation (AID 504749); also: nearly all actives have a fitted effect of over 60% in size; conditions: P. falciparum in erythrocytes, SYBR Green DNA, 72 h; series mostly up to 28.7 µM
Inconclusive results are not listed. Active and inactive are the calls of the source. Calls come from the whole dose curve; as a rule, active = well fitted inhibition curve with a large enough effect; inconclusive = small, poorly fitted or top-dose-only effect; inactive = flat fitted curve, though single readings scatter.
Answer with one of the outcomes given here: active, inactive

Some solved cases for reference:
{"COMPOUND": "CCCOc1ccccc1-c1nc2n[nH]nc2c(=O)[nH]1", "GROUP": "inactive"}
{"COMPOUND": "Nc1ncn([C@@H]2O[C@H](CO)[C@@H](O)[C@H]2O)c(=O)n1", "GROUP": "inactive"}

Task: Could you check what this test reported for COC(=O)[C@H]1[C@H]2C[C@@H]3c4[nH]c5cc(OC)ccc5c4CCN3C[C@H]2C[C@@H](OC(=O)c2cc(OC)c(OC)c(OC)c2)[C@@H]1OC ?
Output: active

Task: Record request — test call for CCN(CC)CC(=O)Nc1c(C)cccc1C
Output: inactive

Task: Identify the outcome logged in this assay for the compound shown: Nc1c2c(nc3ccccc13)CCCC2O (stereo unspecified)
Output: inactive

Task: Recorded test outcome, item CC(C(=O)O)c1ccc(CC2CCCC2=O)cc1 (stereo unspecified)
Output: inactive

Task: Recorded test outcome, item Cc1nc2ccccn2c(=O)c1CCN1CCC(C(=O)c2ccc(F)cc2)CC1
Output: inactive

Task: Short answer needed: outcome of this test for CCN(CC)CCNC(=O)c1ccc(NC(C)=O)cc1 ?
Output: inactive

Task: # fetch the recorded call for CN(C)C/C=C(/c1ccc(Br)cc1)c1cccnc1 here
Output: inactive

Task: Per the assay record, what outcome was assigned to NC/C=C/C(=O)O ?
Output: inactive

Task: Record lookup: outcome of this test for CC(C)(Oc1ccc(CCNC(=O)c2ccc(Cl)cc2)cc1)C(=O)O ?
Output: inactive

* * *

biological target: Metallo-beta-lactamase type 2 (Klebsiella pneumoniae) (UniProt C7C422); assay: qHTS to identify inhibitors of the New Delhi Metallo-beta-lactamase (NDM): assay validation screen against the NCATS LOPAC Collection (AID 1794843); settings: NDM-1 enzyme, nitrocefin hydrolysis, absorbance 485 nm; series mostly up to 38.4 µM;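 also: nitrocefin turnover by NDM-1 measured as 485 nm absorbance at plateau; % is scaled to controls: 0 for no effect and ±100 for the full control effect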
Sequence (C7C422 whole entry, looked up): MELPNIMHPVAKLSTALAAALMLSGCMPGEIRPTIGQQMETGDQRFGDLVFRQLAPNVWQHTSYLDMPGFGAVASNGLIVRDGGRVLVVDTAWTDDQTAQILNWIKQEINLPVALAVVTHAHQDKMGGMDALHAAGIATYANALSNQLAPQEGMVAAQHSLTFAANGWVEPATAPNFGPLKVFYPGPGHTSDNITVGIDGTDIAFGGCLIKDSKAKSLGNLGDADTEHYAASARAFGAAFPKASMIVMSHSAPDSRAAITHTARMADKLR
Inconclusive results are not listed. Active and inactive are the calls of the source. Calls follow the shape of the dose curve; as a rule, active = well fitted curve in the direction sought with a large enough effect; inconclusive = small, poorly fitted or top-dose-only effect, or another doubt; inactive = no such curve, though single readings can be large or run the other way.
REPORTED_ENDPOINT: outcome

Take a look at these entries with their results.
{"COMPOUND": "CC(N=C(NC#N)Nc1ccncc1)C(C)(C)C (configuration not stated)", "outcome": "inactive"}
{"COMPOUND": "CCCN(CCC)C(=O)C(CCC(=O)O)NC(=O)c1ccccc1 (configuration not stated)", "outcome": "inactive"}
{"COMPOUND": "CCCNC(C)C(=O)Nc1ccccc1C (configuration not stated)", "outcome": "inactive"}
{"COMPOUND": "C[C@]12CCC(=O)C=C1CC[C@@H]1[C@@H]2C(=O)C[C@@]2(C)[C@H]1CC[C@]2(O)C(=O)CO", "outcome": "inactive"}

Task: Hi! What's the reported outcome for C[C@]12C=CC(=O)C=C1CC[C@H]1[C@@H]3C[C@@H](O)[C@](O)(C(=O)CO)[C@@]3(C)C[C@H](O)[C@@]12F on Metallo-beta-lactamase type 2 (Klebsiella pneumoniae) (UniProt C7C422)?
Output: inactive

Task: What is its outcome for Metallo-beta-lactamase type 2 (Klebsiella pneumoniae) (UniProt C7C422)? Entry: O=C1CC2(CCCC2)CC(=O)N1CCCCN1CCN(c2ncccn2)CC1
Output: inactive

Task: Metallo-beta-lactamase type 2 (Klebsiella pneumoniae) (UniProt C7C422) / outcome / COc1cc(Cc2cnc(N)nc2N)cc(OC)c1OC : value?
Output: inactive

Task: For the record COC(=O)[C@@H](N)Cc1ccc(O)c(O)c1 , what value of outcome is listed for Metallo-beta-lactamase type 2 (Klebsiella pneumoniae) (UniProt C7C422)?
Output: inactive

Task: Entry COC(=O)C1=C(C)NC(C)=C(C(=O)OC(C)(C)CN(C)CCC(c2ccccc2)c2ccccc2)C1c1cccc([N+](=O)[O-])c1 (configuration not stated) , system Metallo-beta-lactamase type 2 (Klebsiella pneumoniae) (UniProt C7C422): what outcome was measured?
Output: inactive

Task: Metallo-beta-lactamase type 2 (Klebsiella pneumoniae) (UniProt C7C422) / outcome / CC(=O)OC(C)C[N+](C)(C)C (configuration not stated) : value?
Output: inactive

Task: What value of outcome on Metallo-beta-lactamase type 2 (Klebsiella pneumoniae) (UniProt C7C422) does COC(=O)C1=C(C)NC(C)=C(C(=O)OCCN(C)Cc2ccccc2)C1c1cccc([N+](=O)[O-])c1 (configuration not stated) have?
Output: inactive

Task: Find the measured outcome: item CCn1ccnc1CC1COc2ccccc2O1 (configuration not stated) , target or system Metallo-beta-lactamase type 2 (Klebsiella pneumoniae) (UniProt C7C422).
Output: inactive

Task: Can you look up outcome on Metallo-beta-lactamase type 2 (Klebsiella pneumoniae) (UniProt C7C422) for C[N+](C)(C)CCOC(N)=O ?
Output: inactive

* * *

tested on: MCC-26; experiment: qHTS assay to identify novel small-molecules to repurpose for Merkel cell carcinoma treatment (AID 1296009); details: MCC and control cell lines, CellTiter-Glo viability, 72 h; series mostly up to 46 µM; also: nearly all actives have a fitted effect of over 60% in size
Inconclusive results are not listed. The source made the active and inactive calls. Calls come from the whole dose curve; as a rule, active = well fitted inhibition curve with a large enough effect; inconclusive = small, poorly fitted or top-dose-only effect; inactive = flat fitted curve, though single readings scatter.
// one of active, inactive, no free text

{"COMPOUND": "CCCOc1ccccc1-c1nc2n[nH]nc2c(=O)[nH]1", "GROUP": "inactive"}
{"COMPOUND": "CN(C)C(=O)Oc1ccc[n+](C)c1", "GROUP": "inactive"}
{"COMPOUND": "CC(=O)[C@]1(O)Cc2c(O)c3c(c(O)c2[C@@H](O[C@H]2C[C@H](N)[C@H](O)[C@H](C)O2)C1)C(=O)c1ccccc1C3=O", "GROUP": "active"}
{"COMPOUND": "CN1CCN(C2=Nc3ccccc3Oc3ccc(Cl)cc32)CC1", "GROUP": "inactive"}
{"COMPOUND": "C=CCc1ccccc1OCC(O)CNC(C)C (stereo unspecified)", "GROUP": "inactive"}

Task: Kindly provide the recorded test outcome for the following compound: CN(C)[C@@H]1C(=O)C(C(N)=O)=C(O)[C@@]2(O)C(=O)C3=C(O)c4c(O)ccc(Cl)c4[C@@H](O)[C@H]3C[C@@H]12
Output: inactive

Task: What classification did c1ccc2c(c1)CCCC2C1=NCCN1 (stereo unspecified) end up with in this test?
Output: inactive

Task: Given CNCCC(Oc1ccccc1OC)c1ccccc1 (stereo unspecified) , state the outcome it received in this test.
Output: inactive
